Reported values of TGI for individual entries
System: MDA-MB-231 breast
experimental protocol: NCI tumour cell line growth inhibition, 48 h
Where a SMILES comes first, the peptide text is derived from it. [ ]: non-standard residue; d: D form. The star is where a group is joined. mTyr = N[CH](Cc1cccc(O)c1)C(=O)O; Cbz = O=C(OCc1ccccc1)*; OBn = c1ccc(CO*)cc1

molecule	TGI
COC(=O)C(Cc1cccc(O)c1)NC(=O)C(CC(=O)OCc1ccccc1)NC(=O)OCc1ccccc1 (stereo not drawn) (Cbz-Asp(OBn)-[mTyr]-OMe; configuration not given here)	> 100 µM
CCC(c1c[nH]c2ccc(Br)cc12)c1c[nH]c2ccc(Br)cc12	25.4 µM
O=C(O)COc1c(Cl)cc(Cl)c2cccnc12	> 100 µM
O=c1[nH]cnc2c(C3NC(CO)C(O)C3O)c[nH]c12 (stereo not drawn)	> 100 µM
COC(=O)C1=C(OC(=O)c2ccccc2)C(C(=O)OC)[C@]2(O)[C@@H](C(=O)OC)[C@H]1C[C@@H](c1ccccc1)[C@@H]2C(=O)OC (stereo partly drawn)	41.4 µM
CN(CCCNC(=O)c1nn(-c2ccc(Cl)cc2Cl)c2c1Cc1ccccc1-2)CCCNC(=O)c1nn(-c2ccc(Cl)cc2Cl)c2c1Cc1ccccc1-2	3.18 µM
COc1ccc2c(c1)CCN1CCc3cc(OC)c(OC)cc3CC21 (stereo not drawn)	> 100 µM
CCN(c1cccc(NC(=S)Nc2ccccc2N(CC)c2cc(-c3ccccc3)no2)c1)c1cc(-c2ccccc2)no1	> 100 µM
c1ccc(CSCCc2ccncc2)cc1	> 100 µM
COC12c3ccccc3-c3ccccc3C1[C@H]1C(=O)OC(=O)[C@H]12 (stereo partly drawn)	> 10 µM
COc1ccc(OC)c(Cn2cc3c(c2)-c2oncc2CC3)c1	> 72 µM
OC1(c2ccccc2)CSC2=Nc3ccccc3C3CCN1N23 (stereo not drawn)	31.9 µM
CC(C)(C)CN1CCn2c(nc3c(N)nccc32)S1	> 100 µM
COc1ccc2c(c1)OC1=C(C(=O)OC1)C2c1cc(OC)c2c(c1)OCO2 (stereo not drawn)	> 100 µM
CCOc1nc(N)nc(C)c1N=Nc1ccc(Cl)cc1	> 100 µM
CC(C)=C/C=C1/CS(=O)(=O)C=C1C	> 100 µM
COc1ccc2c(c1OC)C(=O)OC2C1c2c(c([N+](=O)[O-])c3c(c2OC)OCO3)CCN1C (stereo not drawn)	> 100 µM
C/C(=C/CC[C@]1(CO)CC[C@]2(CO)[C@H](CC[C@@H]3[C@@]4(C)CC[C@H](OC5OCC(O)C(O)C5OC5OC(CO)C(O)C(O)C5O)C(C)(C)[C@@H]4CC[C@]32C)[C@H]1O)CO (stereo partly drawn)	> 100 µM
CCC1(O)C(=O)OCc2c1cc1n(c2=O)Cc2cc3cc(N)ccc3nc2-1 (stereo not drawn)	> 64.8 µM
COc1ccc(/C=N/NC(=O)Cn2c(-c3ccc(S(C)(=O)=O)cc3)nc3cc(Cl)ccc32)cc1	> 50 µM
COC(=O)C1=C(C)N2[C@H](C(=O)O)CO[C@@]2(C)[C@H](C(=O)OC)[C@H]1c1cccc([N+](=O)[O-])c1	> 100 µM
CCN(CC)CCNCc1cc(Cl)cc2c1OCOC2	> 10 µM
O=[As](O)(O)c1ccc(N=Nc2ccc(O)cc2)cc1	> 100 µM
CC(C)C1=CC23CCC4C(C)(C(=O)O)CCCC4(C)C2CC1C1C(=O)N(c2ccc(C(=O)O)cc2)C(=O)C13 (stereo not drawn)	> 100 µM
CCOc1cc(NC(C)=O)ccc1C(=O)NN1C(=O)C(Cl)C1c1ccco1 (stereo not drawn)	31.1 µM
C[C@@H]1O[C@@H](OC[C@H]2O[C@@H](OCCc3ccc(O)c(O)c3)[C@H](O)[C@@H](O)[C@@H]2OC(=O)/C=C/c2ccc(O)c(O)c2)[C@H](O)[C@H](O)[C@H]1O	> 100 µM
N/N=C1\CC(=O)NC(=O)N1	> 100 µM
COc1cc(/C=C/[N+](=O)[O-])cc(Br)c1OC	8.05 µM

---

Reported values of TGI for individual entries
System: SK-MEL-2 melanoma
experimental protocol: NCI tumour cell line growth inhibition, 48 h
outcome measure: TGI

>>> df
                                   molecule  test_result
0  CCN(CCO)CC(C)Nc1ccc([N+](=O)[O-])c2sc3ccccc3c(=O)c12 (stereo not given)      3.64 µM
1  Cc1ccc(N=Nc2c(O)c(C(=O)Nc3ccccc3)cc3ccccc23)c([N+](=O)[O-])c1     > 100 µM
2  O=C(NC1CCCC1=O)c1ccccc1 (stereo not given)     > 100 µM
3             CCCCCCCCCCCCCP(=O)(O)NCC(N)=O     > 100 µM
4  CC[C@@H](/C=C\CCC(=O)C[C@H](O)CCC=C(C)C)O[Si](C(C)C)(C(C)C)C(C)C     > 100 µM
5  Cc1cc(N(CCC#N)CCC#N)ccc1/C=C1N=C(/C=C\c2ccccc2)N(c2ccc(Cl)cc2)C\1=O     > 100 µM
6  CC(=O)OCC1OC(n2c(=O)[nH]c(=O)c3sccc32)C(Br)C1OC(C)=O (stereo not given)     > 100 µM
7  CC1(C)N=C(N)N=C(N)N1c1ccc(CCCCc2ccc(S(=O)(=O)F)cc2)c(Cl)c1      20.7 µM
8  CCOc1cc(NC(C)=O)ccc1C(=O)NN1C(=O)C(Cl)C1c1ccco1 (stereo not given)      37.3 µM
9  COc1ccc2c(c1)OC1=C(C(=O)OC1)C2c1cc(OC)c2c(c1)OCO2 (stereo not given)     > 100 µM

---

System: ACHN renal
experimental protocol: NCI tumour cell line growth inhibition, 48 h
Reported values of TGI for individual entries
outcome measure: TGI

                                    compound  tested_target  outcome_measure  test_result
 0           CNc1ccc(N)cc1C(=O)N1CCC[C@H]1CO     ACHN renal              TGI     > 100 µM
 1  CC(=O)c1c(C(F)(F)F)n([O-])c2ccc(C)cc2[n+]1=O     ACHN renal              TGI      20.4 µM
 2  COc1cc2c(c(OC)c1OC)-c1ccc(SC)c(=O)cc1[C@@H](NC1OC(CO)C(O)C(O)C1O)CC2 (stereo partly specified)     ACHN renal              TGI     > 100 µM
 3                Brc1ccc(-c2cn3ccncc3n2)cc1     ACHN renal              TGI     > 100 µM
 4  CC1(O)OC(=O)C2=C1CCC1C2CCC2(C)C(O)CCC12 (stereo unspecified)     ACHN renal              TGI     > 100 µM
 5  O=C(Nc1cccc(Nc2ncc(Br)c(NCCc3cnc[nH]3)n2)c1)N1CCCC1     ACHN renal              TGI        56 µM
 6    COc1ccc(OC)c(Cn2cc3c(c2)-c2oncc2CC3)c1     ACHN renal              TGI     > 100 µM
 7  CSCCC(NC(=O)Cc1ccc(C(=O)c2ccccc2)cc1)C(=O)O (stereo unspecified)     ACHN renal              TGI     > 100 µM
 8  CC1(C)N=C(N)N=C(N)N1c1ccc(CCCCc2ccc(S(=O)(=O)F)cc2)c(Cl)c1     ACHN renal              TGI     > 100 µM
 9  COc1ccc2cc(-c3c(-c4ccncc4)nc(-c4ccc(S(C)=O)cc4)n3C)ccc2c1 (stereo unspecified)     ACHN renal              TGI      > 25 µM
10  COC(=O)CC1NC(=O)C1C1(C)OCCO1 (stereo unspecified)     ACHN renal              TGI     > 100 µM

---

Tested on: DU-145 prostate
experimental protocol: NCI tumour cell line growth inhibition, 48 h
Reported values of TGI for individual entries

molecule	TGI
Nc1nc(Cl)c(N)c(NCC2(CO)CC(CCCc3ccccc3)C2)n1 (stereo unspecified)	> 100 µM
CCCCn1c(=O)c2c(nc3n2CCCN3CCc2ccc(OCC(=O)NCCN(CC)CC)cc2)n(CCCC)c1=O	35.3 µM
O=C(Oc1cccnc1)c1ccsc1Nc1ccnc(C(F)(F)F)c1	> 100 µM
CCN(c1cccc(NC(=S)Nc2ccccc2N(CC)c2cc(-c3ccccc3)no2)c1)c1cc(-c2ccccc2)no1	> 100 µM
COc1ccc(CSc2ccccc2Cn2cccc2)cc1OC	> 100 µM
COc1ccc(C(=O)c2[nH]c(Nc3ccc(Cl)cc3)c(C(=S)Nc3ccccc3)c2N)cc1	> 100 µM
CCN(CC)Cc1sc2nc3ccccc3n2c1-c1ccc(OC)cc1	> 100 µM
CC(C)CN=C(N)N=C(N)N	> 100 µM
COc1cc(C2C3=C(COC3=O)Oc3cc4c(cc32)OCO4)cc(OC)c1OC(C)=O (stereo unspecified)	> 100 µM
COc1ccc(-n2cnc3c(NC(CCSC)C(=O)O)ncnc32)cc1 (stereo unspecified)	> 100 µM
CC[C@@H](/C=C\CCC(=O)C[C@H](O)CCC=C(C)C)O[Si](C(C)C)(C(C)C)C(C)C	> 100 µM
Cc1ccc(/C=C2\CCCC(CN3CCCCC3)C2=O)cc1 (stereo unspecified)	23.9 µM
COC(=O)c1c(OC(C)=O)ccc2c1c1c(OC(C)=O)c3ccccc3c(OC(C)=O)c1n2Cc1ccccc1	45.5 µM
CN(CCCCCl)P(=O)(OCCS(=O)(=O)CC(NC(=O)CCC(N)C(=O)O)C(=O)NC(C(=O)O)c1ccccc1)OCC1OC(n2cc(F)c(=O)[nH]c2=O)CC1O (stereo unspecified)	> 100 µM
COc1ccc(OC)c(Cn2cc3c(c2)-c2oncc2CC3)c1	> 64.3 µM
Nc1ccc(CCN2CCN(CCCc3ccccc3)CC2)cc1	> 100 µM
CC(C)(CC(O)C#N)/[N+]([O-])=[N+](\[O-])C(C)(C)CC(O)C#N (stereo unspecified)	92.9 µM
O=C(O)COc1c(Cl)cc(Cl)c2cccnc12	> 100 µM
Cc1c(C2=C(c3cn(C)c4ccccc34)C(=O)NC2=O)c2ccccc2n1C	> 25 µM
CC1OC(OC2C(OC(=O)[C@@H]3CC(C)(C)C[C@H]4C5=CC[C@@H]6[C@@]7(C)C[C@H](O)[C@H](OC8OC(CO)C(O)C(O)C8O)[C@@](C)(CO)[C@@H]7[C@H](O)C[C@@]6(C)[C@]5(C)CC[C@@]34C)OCC(O)C2O)C(O)C(O)C1O (stereo partly specified)	> 7.5 µM
Cc1ccc(/C(O)=C/C(=O)C(=O)NN=C(c2ccccc2)c2ccccc2)cc1	> 100 µM

All figures here come from PubChem BioAssay (NCI).
